test details: Plasma pharmacokinetics of buserelin after i.m. administration in cows
Type: in vivo
conditions used: female, Holstein, cow, plasma, im, 3 mg per cow, single i.m. dose 3 mg per cow, plasma, mean ± SD, n = 5, read-out: MRT0-t
attribute measured: MRT (h)
Please give a number only; it is taken to be in h.

Lookup: Give the reported value of MRT for this record: CCNC(=O)[C@@H]1CCCN1C(=O)[C@H](CCCNC(=N)N)NC(=O)[C@H](CC(C)C)NC(=O)[C@@H](COC(C)(C)C)NC(=O)[C@H](Cc1ccc(O)cc1)NC(=O)[C@H](CO)NC(=O)[C@H](Cc1c[nH]c2ccccc12)NC(=O)[C@H](Cc1cnc[nH]1)NC(=O)[C@@H]1CCC(=O)N1
Found: 1.85
